target-of-assay: HLA-A*26:01 (human)
test-protocol: radioligand competition, purified MHC
pIC50: −log10 of the molar value.

[
  {
    "binder": "SEFSSLPSY (modifications not checked) [… (SEQ ID NO: 27)]",
    "measurement-qualifier": "=",
    "pIC50": 6.06
  },
  {
    "binder": "IRQEEVQEL (modifications not checked) [… (SEQ ID NO: 31)]",
    "measurement-qualifier": "<",
    "pIC50": 4.15
  },
  {
    "binder": "LATNNLVVM (modifications not checked) [… (SEQ ID NO: 16)]",
    "measurement-qualifier": "<",
    "pIC50": 4.15
  },
  {
    "binder": "DEFVVVTV (modifications not checked) [DEFVVVTV (SEQ ID NO: 11)]",
    "measurement-qualifier": "=",
    "pIC50": 5.02
  },
  {
    "binder": "QLTPTWRVY (modifications not checked) [… (SEQ ID NO: 38)]",
    "measurement-qualifier": "<",
    "pIC50": 4.15
  },
  {
    "binder": "MLLGSMLYM (modifications not checked) [… (SEQ ID NO: 4)]",
    "measurement-qualifier": "=",
    "pIC50": 4.34
  },
  {
    "binder": "APHGHVMVEL (modifications not checked) [… (SEQ ID NO: 14)]",
    "measurement-qualifier": "<",
    "pIC50": 4.15
  },
  {
    "binder": "GPMVLRGLIT (modifications not checked) [… (SEQ ID NO: 6)]",
    "measurement-qualifier": "=",
    "pIC50": 6.05
  },
  {
    "binder": "APRITFGGP (modifications not checked) [… (SEQ ID NO: 42)]",
    "measurement-qualifier": "<",
    "pIC50": 4.15
  },
  {
    "binder": "FAVDAAKAY (modifications not checked) [… (SEQ ID NO: 28)]",
    "measurement-qualifier": "=",
    "pIC50": 8.17
  },
  {
    "binder": "GLITLSYHL (modifications not checked) [… (SEQ ID NO: 5)]",
    "measurement-qualifier": "=",
    "pIC50": 4.39
  },
  {
    "binder": "ELPDEFVVV (modifications not checked) [… (SEQ ID NO: 12)]",
    "measurement-qualifier": "=",
    "pIC50": 5.16
  },
  {
    "binder": "EEFEPSTQYEY (modifications not checked) [… (SEQ ID NO: 20)]",
    "measurement-qualifier": "=",
    "pIC50": 4.73
  },
  {
    "binder": "KAFQLTPIAV (modifications not checked) [… (SEQ ID NO: 13)]",
    "measurement-qualifier": "<",
    "pIC50": 4.15
  },
  {
    "binder": "VGYLQPRTF (modifications not checked) [… (SEQ ID NO: 39)]",
    "measurement-qualifier": "<",
    "pIC50": 4.15
  },
  {
    "binder": "FASEAARVV (modifications not checked) [… (SEQ ID NO: 17)]",
    "measurement-qualifier": "=",
    "pIC50": 6.13
  }
]
